- Test Details: Inhibition of Mycobacterium tuberculosis DprE1 using farnesyl-phosphoryl-beta-D-ribofuranose as substrate preincubated for 30 mins before substrate addition by peroxidase coupled assay
pIC50: −log10 of the molar value.

[
  {
    "Sample Smiles": "Cc1c(C(F)(F)F)cc2nc(C3=NCCO3)sc2c1[N+](=O)[O-]",
    "Censor Symbol": "=",
    "pIC50": 5.41
  },
  {
    "Sample Smiles": "O=C(O)c1cc(C(F)(F)F)cc2nc(C(=O)N3CCCCC3)sc12",
    "Censor Symbol": "<",
    "pIC50": 4.00
  },
  {
    "Sample Smiles": "O=C(NCc1ccccn1)c1nc2cc(C(F)(F)F)ccc2s1",
    "Censor Symbol": "<",
    "pIC50": 4.00
  },
  {
    "Sample Smiles": "COCCN1CCN(C(=O)c2nc3cc(C(F)(F)F)c(C)c([N+](=O)[O-])c3s2)CC1",
    "Censor Symbol": "=",
    "pIC50": 5.77
  },
  {
    "Sample Smiles": "Cc1c(C(F)(F)F)cc2nc(C(=O)NCc3ccccn3)sc2c1[N+](=O)[O-]",
    "Censor Symbol": "=",
    "pIC50": 5.92
  },
  {
    "Sample Smiles": "Cc1c(C(F)(F)F)cc2nc(C(=O)N3CCCCC3)sc2c1[N+](=O)[O-]",
    "Censor Symbol": "=",
    "pIC50": 5.66
  },
  {
    "Sample Smiles": "COCCN1CCN(C(=O)c2sc3c([N+](=O)[O-])cc(C(F)(F)F)cc3[n+]2[O-])CC1",
    "Censor Symbol": "=",
    "pIC50": 7.57
  },
  {
    "Sample Smiles": "C[C@H](NC(=O)c1sc2c([N+](=O)[O-])cc(C(F)(F)F)cc2[n+]1[O-])C(=O)C1CCCC1",
    "Censor Symbol": "=",
    "pIC50": 7.22
  },
  {
    "Sample Smiles": "O=C(c1nc2cc(C(F)(F)F)cc(-[n+]3cc([O-])on3)c2s1)N1CCCCC1",
    "Censor Symbol": "=",
    "pIC50": 4.55
  },
  {
    "Sample Smiles": "O=C(c1nc2cc(C(F)(F)F)cc([N+](=O)[O-])c2s1)N1CCCCC1",
    "Censor Symbol": "=",
    "pIC50": 6.67
  },
  {
    "Sample Smiles": "COCCN1CCN(C(=O)c2nc3cc(C(F)(F)F)cc([N+](=O)[O-])c3s2)CC1",
    "Censor Symbol": "=",
    "pIC50": 6.61
  },
  {
    "Sample Smiles": "Cc1c(C(F)(F)F)cc2nc(C(=O)N[C@@H](CCO)C(=O)N3CCCCC3)sc2c1[N+](=O)[O-]",
    "Censor Symbol": "=",
    "pIC50": 5.92
  },
  {
    "Sample Smiles": "O=C(N[C@@H](CO)C(=O)N1CCCC1)c1nc2cc(C(F)(F)F)cc([N+](=O)[O-])c2s1",
    "Censor Symbol": "=",
    "pIC50": 6.46
  },
  {
    "Sample Smiles": "O=[N+]([O-])c1cc(C(F)(F)F)cc2c1sc(C1=NCCO1)[n+]2[O-]",
    "Censor Symbol": "=",
    "pIC50": 6.56
  },
  {
    "Sample Smiles": "N#Cc1cc([N+](=O)[O-])c2sc(C(=O)N3CCCCC3)nc2c1",
    "Censor Symbol": "=",
    "pIC50": 5.74
  },
  {
    "Sample Smiles": "O=C(c1nc2cc(C(F)(F)F)cc([N+](=O)[O-])c2s1)N1CCOCC1",
    "Censor Symbol": "=",
    "pIC50": 6.52
  },
  {
    "Sample Smiles": "O=C([C@@H]1COC(c2nc3cc(C(F)(F)F)cc([N+](=O)[O-])c3s2)=N1)N1CCCC1",
    "Censor Symbol": "=",
    "pIC50": 6.18
  },
  {
    "Sample Smiles": "O=C(NCc1ccccn1)c1sc2c([N+](=O)[O-])cc(C(F)(F)F)cc2[n+]1[O-]",
    "Censor Symbol": "=",
    "pIC50": 7.59
  },
  {
    "Sample Smiles": "Cc1c(C(F)(F)F)cc2nc(C3=N[C@H](C(=O)N4CCCC4)CO3)sc2c1[N+](=O)[O-]",
    "Censor Symbol": "=",
    "pIC50": 5.92
  }
]
